# credit: patent US6150363A

Reported pEC50 values follow for various molecules
System: N18-RE-105 cell
Assay: Test for inhibition of glutamic acid toxicity to neurocyte (LDH release)
Format: cell-based, hybridoma of mouse neuroblastoma and rat retinal neurocyte
Conditions: 10 mM glutamic acid, 24 hours
pEC50: −log10 of the molar value.
endpoint: pEC50

In [3]: df
Out[3]:
                                   molecule  operator_symbol  experimental_value
0               O=c1c2ccccc2[se]n1-c1ccccc1                =                5.00
1  CCOC(=O)c1cccc2c1Nc1ccc(C(=O)c3ccccc3)cc1N2CC=C(C)C                =                7.84
2  CCOC(=O)c1cccc2c1Nc1ccc(C(=O)c3ccccc3)cc1N2                =                8.48
3  CCOC(=O)c1cccc2c1Nc1ccc(C(=O)c3ccccc3)cc1N2C                =                7.24
4  CC(CNC(=O)c1cccnc1)NC(=O)c1cccnc1 (stereo not shown)                <                4.00
5  CCOC(=O)c1cccc2c1Nc1ccc(C(=O)c3ccccc3)cc1N2C(=O)OC                <                6.00
6  CCOC(=O)c1cccc2c1Nc1ccc(C(=O)c3ccccc3)cc1N2Cc1ccccc1                =                7.39
